systemUnderTest: T1, Fc-CLEC1 labelled with Alexa Fluor 488 (human, Alexa Fluor 488 label (sites not given))
T1 construct: also called Fc-CLEC1-A488; Alexa488-Fc-Clec-1
T1 chain: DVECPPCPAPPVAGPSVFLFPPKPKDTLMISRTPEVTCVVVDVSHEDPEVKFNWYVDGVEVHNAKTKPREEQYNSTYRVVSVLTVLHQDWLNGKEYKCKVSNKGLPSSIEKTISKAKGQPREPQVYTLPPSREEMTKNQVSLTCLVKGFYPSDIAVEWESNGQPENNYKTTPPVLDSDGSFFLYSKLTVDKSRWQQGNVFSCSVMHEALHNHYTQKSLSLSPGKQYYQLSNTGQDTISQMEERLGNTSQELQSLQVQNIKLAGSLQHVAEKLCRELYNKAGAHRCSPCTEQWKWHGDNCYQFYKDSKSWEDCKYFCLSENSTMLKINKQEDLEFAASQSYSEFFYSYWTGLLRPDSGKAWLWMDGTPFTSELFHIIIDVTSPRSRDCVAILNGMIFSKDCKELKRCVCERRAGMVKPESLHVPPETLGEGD
runDescription: FACS competition: blocks Fc-CLEC1-A488 (20 nM) binding to CLEC-1 ligand on permeabilised Raji cells; read-out % + cells
readoutName: IC50 (µg/mL)
Provide the reading as a plain figure in µg/mL.

Here is how some binders turned out for IC50.
binder="murine anti-hCLEC1 antibody 15E3-G3 (antibody, V domains shown, Mouse hybridoma antibody) VH: QVQLQQSGPELVKPGASVKMSCKASGFTFTDYVIAWVKVRTGQGLEWIGEIYPGSGSIYYNEKFKGKATLTADKSSNTAYMQLSSLTSEDSAVYFCASSTVVAFDYWGQGTTLTVSS VL: EIVLTQSPTTLAASPGEKIIITCSDSSSISSNYLHWYQQKPGFSPKLLIYGTSNLASGVPARFSGSGSGTTYSLTIGTMEAEDVATYYCQQGSSIPRTFGGGTKLEIK" valuemeasured=14
binder="murine anti-hCLEC1 antibody 11H11-G11 (antibody, V domains shown, Mouse hybridoma antibody) VH: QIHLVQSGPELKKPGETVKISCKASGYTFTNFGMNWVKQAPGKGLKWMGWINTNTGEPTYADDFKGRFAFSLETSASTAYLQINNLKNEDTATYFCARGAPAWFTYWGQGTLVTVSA VL: DIQMTQSPASLSASVGETVTITCRATENIYSYLAWYQQKQGKSPQFLVYNAKTLAEGMPSRFSGSGSGTQFSLKINILQPEDFGTYYCQHHFGTPLTFGAGTKLELK" valuemeasured=0.7

Name the recorded IC50 of the item murine anti-hCLEC1 antibody 10F4-H2 (antibody, V domains shown, Mouse hybridoma antibody) VH: QVQLQQSGTELARPGASVKMSCKASGYIFTDYTIHWVKQRPGQGLEWVGYINPSSGYTNYNQKFKAKATLTADKSSSTAYMQLSSLTSEDSAVYYCTPMFRRSYFDYWGQGTTLTVSS VL: DAVMTQTPLSLPVSLGDQASISCRSSQSLENSNGNTYLNWYLQKPGQSPQLLIYRVSNRFSGVLDRFSGSGSGTDFTLKISRVEAEDLGVYFCLQVTHVPYTFGGGTKLEIK in your answer.
0.82

Identify IC50 associated with the binder murine anti-hCLEC1 antibody 5D1-A5 (antibody, V domains shown, Mouse hybridoma antibody) VH: QVQLKESGPGLVAPSQSLSITCTISGFSLTSYGVHWVRQPPGKGLEWLVVIWSDGSTIYNSALKSRLSISKDNSKSQVFLKMNSLQTDDTAMYYCARHGGYYNYFDYWGQGTTLTVSS VL: DIQMNQSPSSLSASLGDTITITCHASQNINVWLSWYQQKPGNIPKLLIYKASNLHTGVPSRFSGSGSGTGFTLTISSLQPEDIATYYCQQGQSYWTFGGGTKLEIK
0.21
